B1: glmS ribozyme (parent)
chain: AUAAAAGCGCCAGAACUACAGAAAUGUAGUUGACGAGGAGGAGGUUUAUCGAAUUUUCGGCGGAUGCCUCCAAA

Variants of: B1
assayProcedure: self-cleavage kobs at 2500 uM GlcN6P; higher = faster cleavage; RNA array
assayContext: with glucosamine-6-phosphate
This sample holds only a part of the variants without activity.
Hi there, I'd appreciate the recorded self-cleavage kobs at 2500 uM GlcN6P for every entry that follows.

input: Item A6C G13C G29A U30G G32U A33G C34A C50U : provide self-cleavage kobs at 2500 uM GlcN6P
output: < 1e-05 s⁻¹

input: Item U31A G40C : provide self-cleavage kobs at 2500 uM GlcN6P
output: 0.00115 s⁻¹

input: Item G40C G43U U55C : provide self-cleavage kobs at 2500 uM GlcN6P
output: < 1e-05 s⁻¹

input: Item G38C A48C : provide self-cleavage kobs at 2500 uM GlcN6P
output: < 1e-05 s⁻¹

input: Item C8G C50U : provide self-cleavage kobs at 2500 uM GlcN6P
output: < 1e-05 s⁻¹

input: Item C58U U65A C68G : provide self-cleavage kobs at 2500 uM GlcN6P
output: 0.000102 s⁻¹

input: Item A48U U54G : provide self-cleavage kobs at 2500 uM GlcN6P
output: 0.000261 s⁻¹

input: Item A52C U65A : provide self-cleavage kobs at 2500 uM GlcN6P
output: < 1e-05 s⁻¹

input: Item G13C G60A : provide self-cleavage kobs at 2500 uM GlcN6P
output: < 1e-05 s⁻¹

input: Item G63A C70G : provide self-cleavage kobs at 2500 uM GlcN6P
output: 3.19e-05 s⁻¹

input: Item C10A C11G G40U C50G A52U : provide self-cleavage kobs at 2500 uM GlcN6P
output: < 1e-05 s⁻¹

This collection of values is drawn from the supplement of paper PMC7125110.
